# system tested: human glycolate oxidase (hGO) (Homo sapiens, UniProt Q9UJM8)
# Construct: His-tag (6 histidines, pET-15b) (N); made in house; host or cells: E. coli BL21 (DE3)
# Sequence (Q9UJM8 1-370): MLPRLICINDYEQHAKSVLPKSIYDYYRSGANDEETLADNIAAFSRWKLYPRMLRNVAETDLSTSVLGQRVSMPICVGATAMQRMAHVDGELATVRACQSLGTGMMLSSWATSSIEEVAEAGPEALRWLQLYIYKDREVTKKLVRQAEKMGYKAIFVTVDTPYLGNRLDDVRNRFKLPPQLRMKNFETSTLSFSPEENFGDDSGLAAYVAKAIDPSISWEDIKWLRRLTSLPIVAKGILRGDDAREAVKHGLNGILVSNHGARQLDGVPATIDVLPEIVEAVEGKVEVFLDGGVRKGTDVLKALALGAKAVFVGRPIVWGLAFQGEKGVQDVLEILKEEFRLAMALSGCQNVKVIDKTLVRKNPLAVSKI
# method: In vitro inhibition of human glycolate oxidase (enzymatic assay, HRP-coupled Trinder reaction);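 note: values are IC50 potency bins despite the % Inhibition label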
# Format: biochemical
# conditions: recombinant hGO, 40 mM glycolic acid, pH 7, read at 515 nm, 1 minute after initiation of Trinder reaction; read-out: % Inhibition
pIC50: −log10 of the molar value.
List of pIC50 values.

Example results:
compound: O=C(O)c1nn[nH]c1Oc1ccc(-c2cnn(C3CCC3)c2)cc1 [Example 21]
system tested: human glycolate oxidase (hGO) (Homo sapiens, UniProt Q9UJM8)
endpoint value: > 7.00

compound: O=C(O)c1nn[nH]c1Oc1cccc(-c2ccc(C(F)(F)F)cc2)c1 [Example 114]
system tested: human glycolate oxidase (hGO) (Homo sapiens, UniProt Q9UJM8)
endpoint value: 6.70 to 7.00

compound: O=C(O)c1nn[nH]c1Oc1ccc(-c2ccc(C3CC(F)(F)C3)cc2)cc1 [Example 127]
system tested: human glycolate oxidase (hGO) (Homo sapiens, UniProt Q9UJM8)
endpoint value: 6.70 to 7.00

compound: O=C(O)c1nn[nH]c1Oc1ccc(Cl)nc1 [Example 49]
system tested: human glycolate oxidase (hGO) (Homo sapiens, UniProt Q9UJM8)
endpoint value: > 7.00

Which measured pIC50 value corresponds to Cc1cc(Oc2[nH]nnc2C(=O)O)ccc1-c1cccnc1F [Example 72] ?
> 7.00

----------
# system tested: human glycolate oxidase (hGO) (Homo sapiens)
# Construct: His-tag (6 histidines, pET-15b) (N); made in house; host or cells: E. coli BL21 (DE3)
# method: In vitro inhibition of human glycolate oxidase (enzymatic assay, HRP-coupled Trinder reaction);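 note: values are IC50 potency bins despite the % Inhibition label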
# Type: biochemical
# conditions: recombinant hGO, 40 mM glycolic acid, pH 7, read at 515 nm, 1 minute after initiation of Trinder reaction; read-out: % Inhibition
List of IC50 values.

molecule: Cc1cc(F)nc(-c2ccc(Oc3[nH]nnc3C(=O)O)cc2)c1
measured quantity: IC50
endpoint value: < 100 nM
//
molecule: O=C(O)c1nn[nH]c1Oc1ccc(-c2cccc(OC(F)F)c2)nc1
measured quantity: IC50
endpoint value: 100 to 200 nM
//
molecule: O=C(O)c1nn[nH]c1Oc1ccc(-c2ccc3nccn3c2)cc1
measured quantity: IC50
endpoint value: 100 to 200 nM
//
molecule: O=C(O)c1nn[nH]c1Oc1ccc(C2CCC3(CC2)CC3(F)F)cc1 (stereo not drawn)
measured quantity: IC50
endpoint value: > 200 nM
//
molecule: CC(C)c1ccc(-c2cccc(Oc3[nH]nnc3C(=O)O)c2)cc1
measured quantity: IC50
endpoint value: 100 to 200 nM

Which measured IC50 value corresponds to `O=C(O)c1nn[nH]c1Oc1ccc(-c2ccoc2)cc1` ?
100 to 200 nM

Record: `O=C(O)c1[nH]nnc1Oc1ccc(C2CCC(F)(F)CC2)cc1`
100 to 200 nM

Record: `O=C(O)c1nn[nH]c1Oc1ccc(-n2cccn2)cc1`
< 100 nM

Record: `O=C(O)c1nn[nH]c1Oc1ccc(-c2ccsc2)cc1`
< 100 nM

Where these numbers come from: patent US11401246B2
